Consider the following sequences; for each one, report its binding signal.
# STUDY_SYSTEM: OsSMF1 (Oryza sativa, UniProt Q6ZLB0 1-436)
# Sequence: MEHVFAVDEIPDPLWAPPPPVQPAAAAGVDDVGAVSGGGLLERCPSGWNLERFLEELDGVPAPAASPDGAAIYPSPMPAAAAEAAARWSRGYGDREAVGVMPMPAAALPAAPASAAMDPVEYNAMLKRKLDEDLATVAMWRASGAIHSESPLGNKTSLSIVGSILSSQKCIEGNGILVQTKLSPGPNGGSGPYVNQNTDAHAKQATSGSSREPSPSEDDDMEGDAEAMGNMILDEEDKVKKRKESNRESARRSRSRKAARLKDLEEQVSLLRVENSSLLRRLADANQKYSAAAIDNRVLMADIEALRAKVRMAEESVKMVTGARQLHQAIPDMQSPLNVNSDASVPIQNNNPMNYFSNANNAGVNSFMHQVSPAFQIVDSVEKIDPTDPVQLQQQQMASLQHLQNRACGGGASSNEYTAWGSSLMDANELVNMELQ
# TEST_METHOD_NOTES: protein-binding microarray (RPBM); PBS, 2% BSA, 51.3 ng/ul salmon testes DNA, 50 uM zinc acetate, 200 nM TF, 25 C, 1 h; high values mean tight binding
# SETTINGS: protein: recombinant; tags: N-terminal polyhistidine and DsRed monomer fusion (pET32a); chain copies: 2; label: CyDye5-dUTP incorporated in the synthesized complementary strand; 3' TTTTT single-stranded linker to array surface; dsDNA, one strand shown
The full ranking holds about 39,000 sequences; the median of “fluorescence intensity (a.u.)” is about 4,300, and the highest 2% start at about 39,000. The sample holds the highest values, similar sequences and a random draw of the others, so the mix is not that of the screen.

1) GCGCGTTGCTGCTGACTCCGGAGCAAAATCGAGCGAGCGCCGGAGTCACCTAGTGCAG    3360 fluorescence intensity (a.u.)

Please state, for each entry, its recorded binding signal.
1. AATCTATGCATATATATATATATATATATGTCTAGATTCACGGAGTCACCTAGTGCAG
2. ATGTTTTCTAGACTAATATACTATTAATCTATCTTTTATCCGGAGTCACCTAGTGCAG

["3240 fluorescence intensity (a.u.)", "36400 fluorescence intensity (a.u.)"]

Record binding signal for all entries; do not skip any.
1. ATGTGACTACCACCTCTAAATTTATCTATTTTATTCACTCCGGAGTCACCTAGTGCAG
2. GAAATCTAATTTTATCCACGAGACTATAGTGAGCCTACTCCGGAGTCACCTAGTGCAG

["18600 fluorescence intensity (a.u.)", "39700 fluorescence intensity (a.u.)"]

###

# STUDY_SYSTEM: OsSMF1 (Oryza sativa, UniProt Q6ZLB0 1-436)
# Sequence: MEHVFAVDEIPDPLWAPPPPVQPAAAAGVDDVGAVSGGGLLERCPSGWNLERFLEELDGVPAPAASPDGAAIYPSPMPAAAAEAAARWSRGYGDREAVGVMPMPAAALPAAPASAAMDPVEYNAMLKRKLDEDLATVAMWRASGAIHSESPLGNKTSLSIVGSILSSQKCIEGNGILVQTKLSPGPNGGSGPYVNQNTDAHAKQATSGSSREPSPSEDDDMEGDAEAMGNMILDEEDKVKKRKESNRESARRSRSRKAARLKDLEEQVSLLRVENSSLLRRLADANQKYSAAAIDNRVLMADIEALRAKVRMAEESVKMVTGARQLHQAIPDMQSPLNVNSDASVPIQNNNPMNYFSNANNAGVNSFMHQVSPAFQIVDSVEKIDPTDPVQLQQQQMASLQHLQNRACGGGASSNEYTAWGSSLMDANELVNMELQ
# TEST_METHOD_NOTES: protein-binding microarray (RPBM); PBS, 2% BSA, 51.3 ng/ul salmon testes DNA, 50 uM zinc acetate, 200 nM TF, 25 C, 1 h; high values mean tight binding
# SETTINGS: protein: recombinant; tags: N-terminal polyhistidine and DsRed monomer fusion (pET32a); chain copies: 2; label: CyDye5-dUTP incorporated in the synthesized complementary strand; 3' TTTTT single-stranded linker to array surface; dsDNA, one strand shown
The full ranking holds about 39,000 sequences; the median of “fluorescence intensity (a.u.)” is about 4,300, and the highest 2% start at about 39,000. This excerpt belongs to a sample that is enriched for the highest values.
READOUT_TYPE: binding signal

1) AGATGTGATACATTAGCATTCTAGCACGGCGGTGGCATTGCGGAGTCACCTAGTGCAG    3250 fluorescence intensity (a.u.)
2) TCATTAACATCAATATGAATGTGAGAAATGCTAGAATGACCGGAGTCACCTAGTGCAG    3240 fluorescence intensity (a.u.)
3) TTCTGATTAGGCTGCCACATTGGCGGCACGTGTGATAGCTCGGAGTCACCTAGTGCAG    45900 fluorescence intensity (a.u.)
4) TCTTCCAAATGAACTGGCAATATACTTGTACACGTTCTGTCGGAGTCACCTAGTGCAG    3190 fluorescence intensity (a.u.)
5) CATGGTAGAAAATTAGATTATGGTGCATTTGCTGCAAATGCGGAGTCACCTAGTGCAG    3860 fluorescence intensity (a.u.)
6) ACTATGGATATCTGTTTTAGCTGACATGGCATCCTACTCACGGAGTCACCTAGTGCAG    8140 fluorescence intensity (a.u.)
7) GAAAACTAGTCCAAAATGAGTCTTTGCTTCAATGCAAACGCGGAGTCACCTAGTGCAG    39000 fluorescence intensity (a.u.)
8) ATTCTTTTACCGCGTTGATGAATCGGATTCGTTCCGGTTTCGGAGTCACCTAGTGCAG    3360 fluorescence intensity (a.u.)

Reported binding signal, sequence "TAGAATTTCTCTTCATATAATGCTACGTCATTGCTATATACGGAGTCACCTAGTGCAG" : ____
10300 fluorescence intensity (a.u.)

###

# STUDY_SYSTEM: OsSMF1 (Oryza sativa, UniProt Q6ZLB0 1-436)
# Sequence: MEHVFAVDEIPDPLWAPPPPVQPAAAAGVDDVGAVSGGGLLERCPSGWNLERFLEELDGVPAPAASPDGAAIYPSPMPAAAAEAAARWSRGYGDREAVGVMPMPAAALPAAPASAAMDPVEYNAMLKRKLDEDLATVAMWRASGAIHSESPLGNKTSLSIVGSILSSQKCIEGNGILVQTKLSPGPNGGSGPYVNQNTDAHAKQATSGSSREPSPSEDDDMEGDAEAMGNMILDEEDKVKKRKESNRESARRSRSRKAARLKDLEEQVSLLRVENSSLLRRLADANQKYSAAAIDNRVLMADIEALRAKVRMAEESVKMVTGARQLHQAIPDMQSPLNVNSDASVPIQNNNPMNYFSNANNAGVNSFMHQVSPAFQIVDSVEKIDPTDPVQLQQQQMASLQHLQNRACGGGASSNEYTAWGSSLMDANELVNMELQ
# TEST_METHOD_NOTES: protein-binding microarray (RPBM); PBS, 2% BSA, 51.3 ng/ul salmon testes DNA, 50 uM zinc acetate, 200 nM TF, 25 C, 1 h; high values mean tight binding
# SETTINGS: protein: recombinant; tags: N-terminal polyhistidine and DsRed monomer fusion (pET32a); chain copies: 2; label: CyDye5-dUTP incorporated in the synthesized complementary strand; 3' TTTTT single-stranded linker to array surface; dsDNA, one strand shown
Over roughly 39,000 sequences, “fluorescence intensity (a.u.)” has its median near 4,300; the highest 2% begin near 39,000. For the sample, the highest values were picked, then their nearest neighbours and some sequences at random.
Give measured binding signal for each item. Keep answers brief.

Some entries whose results are on file:
1) CAAAAGGGAATGCTTTAGGCAGATCATGGAGATAAAGACTCGGAGTCACCTAGTGCAG    39000 fluorescence intensity (a.u.)
2) ATAAAGACCTAGTCAATGGAGTGCCACGTAGGCACCACGTCGGAGTCACCTAGTGCAG    39000 fluorescence intensity (a.u.)
3) TTTACCATTGCGGGTGCTCTAATAGGTGGCATGCCATGCGCGGAGTCACCTAGTGCAG    4740 fluorescence intensity (a.u.)
4) CAAATCAAATTACCACATAAGCACCACGTCAATGCCACGTCGGAGTCACCTAGTGCAG    22200 fluorescence intensity (a.u.)

Here are 5 sequences. What values of binding signal were reported for them?
1. AATTGTTTACTGATCTTTGCGTTAATGATGATTGTGCCCTCGGAGTCACCTAGTGCAG
2. TCAGATAGCCACCATGACATGTATCAGTACATGCAGTGATCGGAGTCACCTAGTGCAG
3. AGCGTCACCTCAATGCCACGTGTGATAAAGACCTAGTTAACGGAGTCACCTAGTGCAG
4. CAGACAGACACAGAGAGATCGATATCAACATGCTTTAGTCCGGAGTCACCTAGTGCAG
5. GAATTGCCACGTAGGCGCCACGTCATATGAAGACCGAGTCCGGAGTCACCTAGTGCAG

3160 fluorescence intensity (a.u.)
4480 fluorescence intensity (a.u.)
17200 fluorescence intensity (a.u.)
3710 fluorescence intensity (a.u.)
45500 fluorescence intensity (a.u.)
